system tested: Mast/stem cell growth factor receptor Kit (Homo sapiens, UniProt P10721, N822K)
Sequence (P10721 26-976 N822K limits assumed): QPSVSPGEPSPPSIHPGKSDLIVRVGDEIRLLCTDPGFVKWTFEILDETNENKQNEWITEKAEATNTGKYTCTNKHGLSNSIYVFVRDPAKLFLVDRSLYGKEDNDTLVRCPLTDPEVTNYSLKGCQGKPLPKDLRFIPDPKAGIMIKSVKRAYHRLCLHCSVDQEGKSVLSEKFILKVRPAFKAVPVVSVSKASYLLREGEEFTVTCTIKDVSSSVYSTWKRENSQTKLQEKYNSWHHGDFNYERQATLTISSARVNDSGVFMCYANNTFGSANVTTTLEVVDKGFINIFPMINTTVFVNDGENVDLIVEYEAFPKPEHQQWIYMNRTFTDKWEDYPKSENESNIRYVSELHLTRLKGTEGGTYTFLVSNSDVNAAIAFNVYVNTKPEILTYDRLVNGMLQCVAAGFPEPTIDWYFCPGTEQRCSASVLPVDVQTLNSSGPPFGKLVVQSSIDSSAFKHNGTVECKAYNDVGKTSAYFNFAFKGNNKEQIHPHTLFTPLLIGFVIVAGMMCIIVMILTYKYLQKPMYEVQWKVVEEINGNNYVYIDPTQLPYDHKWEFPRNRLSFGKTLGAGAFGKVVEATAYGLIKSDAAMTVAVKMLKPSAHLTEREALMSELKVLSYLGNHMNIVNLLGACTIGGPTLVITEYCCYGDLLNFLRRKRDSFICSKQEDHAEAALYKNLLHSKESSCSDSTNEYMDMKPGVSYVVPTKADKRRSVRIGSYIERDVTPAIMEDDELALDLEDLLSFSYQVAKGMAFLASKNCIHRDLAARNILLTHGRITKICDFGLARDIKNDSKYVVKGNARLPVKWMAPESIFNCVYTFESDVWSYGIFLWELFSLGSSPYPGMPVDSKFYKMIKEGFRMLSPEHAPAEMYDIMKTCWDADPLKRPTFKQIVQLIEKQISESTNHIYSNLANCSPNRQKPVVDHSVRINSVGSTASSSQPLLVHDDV
assay overview: Inhibition of KIT N822K mutant autophosphorylation in human Kasumi 1 cells harboring KIT N822K mutation in exon 17 incubated for 45 mins by Luminex-based bead assay
measured property: pIC50
Answers are plain numbers, as −log10 of the molar value.

Find the measured pIC50 of Cn1cc(-c2ccc(CNc3cc(-c4cnc5cc(OCCCN6CCCC6)ccn45)ncn3)cc2)cn1 [IDRX-42] and report it.
8.40

* * *

assay overview: Plasma clearance in Cynomolgus monkey at 0.2 mg/kg, iv and measured upto 24 hrs
Format: ADME, organism-based, Macaca fascicularis
measured property: clearance (mL/min/kg)
Answers are plain numbers, in mL/min/kg.

Supply reported clearance belonging to this compound: Cn1cc(-c2ccc(CNc3cc(-c4cnc5cc(OCCCN6CCCC6)ccn45)ncn3)cc2)cn1 [IDRX-42]
36.7

* * *

assay overview: Oral bioavailability in CD-1 mouse at 10 mg/kg and measured upto 24 hrs
Assay type: ADME, organism-based
condition context: in vivo
measured property: bioavailability (%)
One number for each entry, in %.

Find the measured bioavailability of Cn1cc(-c2ccc(CNc3cc(-c4cnc5cc(OCCCN6CCCC6)ccn45)ncn3)cc2)cn1 and report it.
46

* * *

assay overview: Volume of distribution at steady state in Cynomolgus monkey at 0.2 mg/kg, iv and measured upto 24 hrs
Assay type: ADME, organism-based, Macaca fascicularis
condition context: in vivo, read-out: Vdss
measured property: Vd (L/kg)
Answers are plain numbers, in L/kg.

Identify the reported Vd for the following entry. Cn1cc(-c2ccc(CNc3cc(-c4cnc5cc(OCCCN6CCCC6)ccn45)ncn3)cc2)cn1 [IDRX-42]
12.4

* * *

assay overview: Efflux ratio of apparent permeability from basolateral to apical side over apical to basolateral side in human Caco-2 cells at 1 uM and measured after 2 hrs by LC-MS/MS analysis
Format: ADME, cell-based
measured property: efflux ratio at 2 h, 1 µM

Some molecules with recorded efflux ratio at 2 h, 1 µM:
molecule	endpoint value
Cn1cc(-c2ccc(CNc3cc(-c4cnc5cc(OCCO)ccn45)ncn3)cc2)cn1	5
Cn1cc(-c2ccc(CNc3cc(-c4cnc5cc(OCCCN6CCCC6)ccn45)ncn3)cc2)cn1 [IDRX-42]	14
Cc1nc(-c2ccc(CNc3cc(-c4cnc5cc(OCCN6CCC(=O)N(C)CC6)ccn45)ncn3)cc2)co1	7.5

Report efflux ratio at 2 h, 1 µM, nothing else, for this molecule: Cn1cc(-c2ccc(CNc3cc(-c4cnc5cc(OCCN6CCCC6)ccn45)ncn3)cc2)cn1
5.4

* * *

assay overview: Efflux ratio of apparent permeability from basolateral to apical side over apical to basolateral side in human Caco-2 cells at 1 uM and measured after 2 hrs by LC-MS/MS analysis
Type: ADME, cell-based
measured property: efflux ratio at 2 h, 1 µM
One number for each entry.

Field: example entries. Status: answers known.
structure	efflux ratio at 2 h, 1 µM
COCCOc1ccn2c(-c3cc(NCc4ccc(-c5cnn(C)c5)cc4)ncn3)cnc2c1	0.9
COc1ccn2c(-c3cc(NCc4ccc(-c5cnn(C)n5)cc4)ncn3)cnc2c1	0.7
Cn1cc(-c2ccc(CNc3cc(-c4cnc5cc(OCCCNC6COC6)ccn45)ncn3)cc2)cn1	15

Complete the entry with efflux ratio at 2 h, 1 µM for CN1CC(COc2ccn3c(-c4cc(NCc5ccc(-c6cnn(C)c6)cc5)ncn4)cnc3c2)C1
57
